# System: Lovo cells
# Assay: Cancer cell proliferation inhibition (Cell Counting Kit-8), colorectal cancer cell line
# Type: cell-based
# Experimental Parameters: Homo sapiens, LoVo, 264 h, 1000 nM, cultured seven to 11 days; read-out: % inhibition rate LoVo
inhibition at 1 µM listing for selected compounds.

Completed entries (count: 4):
Request: inhibition at 1 µM lookup needed for CSc1cc(C)[nH]c(=O)c1CNC(=O)c1cc(-c2ccc(N3C[C@@H](C)O[C@@H](C)C3)nc2)c2c(c1C)OC(C)([C@H]1CC[C@H](N(C)CC(F)(F)F)CC1)O2 (some centres unmarked) [Compound 20] , thanks.
Result: ≥ 70%

Request: Note, next up: CCCCN(C)c1ncc(-c2cc(C(=O)NCc3c(SC)cc(C)[nH]c3=O)c(C)c3c2OC(C)(C2CCN(CC(F)(F)F)CC2)O3)cn1 (centres unmarked) [Compound 99]
Result: ≥ 70%

Request: Note, next up: CSc1cc(C)[nH]c(=O)c1CNC(=O)c1cc(-c2cnc(N3CCC(F)(F)CC3)nc2)c2c(c1C)OC(C)([C@H]1CC[C@H](N(C)C)CC1)O2 (relative stereo) [Compound 8]
Result: 30 to 70%

Request: Note, next up: CCN(C)[C@H]1CC[C@H](C2(C)Oc3c(-c4ccc(N5C[C@@H](C)O[C@@H](C)C5)nc4)cc(C(=O)NCc4c(SC)cc(C)[nH]c4=O)c(C)c3O2)CC1 (some centres unmarked) [Compound 111]
Result: ≥ 70%

Continue with the next compound.
Request: inhibition at 1 µM lookup needed for CSc1cc(C)[nH]c(=O)c1CNC(=O)c1cc(-c2ccc(N3C[C@@H](C)O[C@@H](C)C3)nc2)c2c(c1C)OC(C)([C@H]1CC[C@H](N(C)CC(F)F)CC1)O2 (some centres unmarked) [Compound 109] , thanks.
Result: ≥ 70%

* * *

# Subject Of Test: UniProt Q92800
# Assay: AlphaLISA enzyme activity inhibition, EZH1
# Format: biochemical
# Experimental Parameters: 5nM test substance
Label YES when inhibition at 0.005 µM >= 70%; otherwise NO.

Answered cases to consult:
Request: Check if inhibition at 0.005 µM >= 70% (inclusive). Item: CSc1cc(C)[nH]c(=O)c1CNC(=O)c1cc(-c2cnc(N3CCC(F)(F)CC3)nc2)c2c(c1C)OC(C)([C@H]1CC[C@H](N(C)C)CC1)O2 (relative stereo)
Result: YES

Request: Note, next up: CSc1cc(C)[nH]c(=O)c1CNC(=O)c1cc(-c2ccc(N3C[C@@H](C)O[C@@H](C)C3)nc2)c2c(c1C)OC(C)(C1CCN(CCc3ccccc3)CC1)O2 (single isomer, unassigned)
Result: NO

Request: Note, next up: COc1ccc(F)cc1-c1cc(C(=O)NCc2c(SC)cc(C)[nH]c2=O)c(C)c2c1OC(C)(C1CCC(N(C)C)CC1)O2 (centres unmarked)
Result: NO

Next:
Request: Check if inhibition at 0.005 µM >= 70% (inclusive). Item: CSc1cc(C)[nH]c(=O)c1CNC(=O)c1cc(-c2ccc(N3CCOCC3)nc2)c2c(c1C)OC(C)(C1CCN(CC(F)(F)F)CC1)O2 (centres unmarked) [Compound 61]
Result: NO

Request: Note, next up: CSc1cc(C)[nH]c(=O)c1CNC(=O)c1cc(-c2ccsc2)c2c(c1C)OC(C)([C@H]1CC[C@H](N(C)C)CC1)O2 (relative stereo)
Result: YES

* * *

# System: SW-13 cells
# Assay: Cancer cell proliferation inhibition (Cell Counting Kit-8), adrenal cancer cell line
# Type: cell-based
# Experimental Parameters: Homo sapiens, SW13, 264 h, 1000 nM, cultured seven to 11 days; read-out: % inhibition rate SW-13
Readout Kind: inhibition at 1 µM

Request: inhibition at 1 µM lookup needed for CSc1cc(C)[nH]c(=O)c1CNC(=O)c1cc(-c2ccc(N3CCC(F)(F)CC3)nc2)c2c(c1C)OC(C)([C@H]1CC[C@H](N(C)C)CC1)O2 (relative stereo) , thanks.
Result: 30 to 70%

Request: Note, next up: CSc1cc(C)[nH]c(=O)c1CNC(=O)c1cc(-c2ccc(N3C[C@@H](C)O[C@@H](C)C3)nc2)c2c(c1C)OC(C)([C@H]1CC[C@H](N(C)CCc3ccccc3)CC1)O2 (some centres unmarked)
Result: 30 to 70%

Next:
Request: inhibition at 1 µM lookup needed for COC(CN(C)[C@H]1CC[C@H](C2(C)Oc3c(-c4ccc(N5C[C@@H](C)O[C@@H](C)C5)nc4)cc(C(=O)NCc4c(SC)cc(C)[nH]c4=O)c(C)c3O2)CC1)OC (some centres unmarked) , thanks.
Result: 30 to 70%

Request: Note, next up: CSc1cc(C)[nH]c(=O)c1CNC(=O)c1cc(-c2ccc(N3CCCCC3)cc2)c2c(c1C)OC(C)(C1CCN(CC(F)(F)F)CC1)O2 (centres unmarked)
Result: ≤ 30%

Request: Note, next up: CSc1cc(C)[nH]c(=O)c1CNC(=O)c1cc(-c2ccc(N3CCOCC3)nc2)c2c(c1C)OC(C)(C1CCN(CC(F)(F)F)CC1)O2 (centres unmarked) [Compound 61]
Result: ≤ 30%

* * *

# Subject Of Test: EZH1 (Homo sapiens)
# Sequence (Q92800 whole entry, species assumed): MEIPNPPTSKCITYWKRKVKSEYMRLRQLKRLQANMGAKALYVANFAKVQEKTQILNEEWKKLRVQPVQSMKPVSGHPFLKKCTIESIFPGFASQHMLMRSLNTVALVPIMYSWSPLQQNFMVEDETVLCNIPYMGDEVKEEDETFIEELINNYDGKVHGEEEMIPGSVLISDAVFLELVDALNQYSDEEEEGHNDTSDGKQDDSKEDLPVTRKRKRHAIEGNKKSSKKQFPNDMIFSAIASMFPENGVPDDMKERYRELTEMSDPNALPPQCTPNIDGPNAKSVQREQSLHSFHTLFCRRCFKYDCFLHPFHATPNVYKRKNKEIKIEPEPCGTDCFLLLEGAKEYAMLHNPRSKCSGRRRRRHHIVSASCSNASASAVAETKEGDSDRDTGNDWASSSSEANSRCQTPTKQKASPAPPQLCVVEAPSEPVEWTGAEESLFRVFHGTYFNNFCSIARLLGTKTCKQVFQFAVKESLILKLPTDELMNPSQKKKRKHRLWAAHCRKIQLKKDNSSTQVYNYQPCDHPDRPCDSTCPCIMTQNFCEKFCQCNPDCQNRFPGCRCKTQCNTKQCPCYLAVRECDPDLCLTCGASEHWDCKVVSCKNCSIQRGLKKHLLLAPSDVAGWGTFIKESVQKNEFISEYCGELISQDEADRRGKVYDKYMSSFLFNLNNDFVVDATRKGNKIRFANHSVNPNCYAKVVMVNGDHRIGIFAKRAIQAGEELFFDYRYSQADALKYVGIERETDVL
# Sequence (O75530 whole entry partner, species assumed): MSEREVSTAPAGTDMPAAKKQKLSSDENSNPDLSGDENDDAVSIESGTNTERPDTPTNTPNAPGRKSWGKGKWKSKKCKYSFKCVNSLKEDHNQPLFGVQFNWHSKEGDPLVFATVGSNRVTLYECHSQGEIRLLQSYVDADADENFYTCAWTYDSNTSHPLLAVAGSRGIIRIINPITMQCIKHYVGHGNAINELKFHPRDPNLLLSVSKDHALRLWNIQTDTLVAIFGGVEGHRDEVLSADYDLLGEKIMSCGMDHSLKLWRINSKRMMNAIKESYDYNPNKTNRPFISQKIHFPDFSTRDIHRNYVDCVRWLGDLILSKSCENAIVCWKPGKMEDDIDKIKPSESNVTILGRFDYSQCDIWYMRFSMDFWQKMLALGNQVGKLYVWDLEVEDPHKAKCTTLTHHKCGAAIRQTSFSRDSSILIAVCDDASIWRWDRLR
# Sequence (Q15022 whole entry partner, species assumed): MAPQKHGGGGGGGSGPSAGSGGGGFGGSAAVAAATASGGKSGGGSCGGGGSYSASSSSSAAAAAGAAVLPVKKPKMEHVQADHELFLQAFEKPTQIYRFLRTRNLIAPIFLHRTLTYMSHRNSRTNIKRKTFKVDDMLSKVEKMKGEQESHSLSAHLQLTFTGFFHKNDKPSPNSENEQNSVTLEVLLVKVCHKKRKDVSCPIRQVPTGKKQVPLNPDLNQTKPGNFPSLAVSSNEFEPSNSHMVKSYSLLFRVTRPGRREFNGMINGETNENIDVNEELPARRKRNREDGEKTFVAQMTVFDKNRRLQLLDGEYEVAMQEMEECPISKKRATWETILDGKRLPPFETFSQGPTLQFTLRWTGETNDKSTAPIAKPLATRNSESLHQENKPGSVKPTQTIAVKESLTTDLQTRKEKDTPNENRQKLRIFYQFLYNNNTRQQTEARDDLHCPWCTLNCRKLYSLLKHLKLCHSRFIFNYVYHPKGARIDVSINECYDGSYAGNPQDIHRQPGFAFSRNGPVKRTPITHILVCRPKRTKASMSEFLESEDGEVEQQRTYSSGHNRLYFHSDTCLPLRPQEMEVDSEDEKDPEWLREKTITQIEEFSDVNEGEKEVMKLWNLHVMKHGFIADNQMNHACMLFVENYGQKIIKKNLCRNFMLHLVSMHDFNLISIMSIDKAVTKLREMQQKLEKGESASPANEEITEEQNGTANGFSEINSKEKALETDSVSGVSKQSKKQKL
# Assay: AlphaLISA enzyme activity inhibition, EZH1
# Type: biochemical
# Experimental Parameters: 10nM test substance
# Procedure: In order to confirm the EZH1 and/or EZH2 activity inhibitory effect of the 1,3-benzodioxole derivative compounds represented by chemical formula I of the present invention, the activity was measured using an AlphaLISA test method. […] An activity was measured using the Magellan program on a Spark10M instrument. DMSO was used as a control group, an inhibition rate of enzyme activity was calculated using a following equation, and the results thereof are shown in Table 1 below. […]
Readout Kind: inhibition at 0.01 µM (%)
// note: answer is a bare numeric in %

Completed entries (count: 5):
Request: inhibition at 0.01 µM lookup needed for CSc1cc(C)[nH]c(=O)c1CNC(=O)c1cc(-c2ccc(N3C[C@@H](C)O[C@@H](C)C3)nc2)c2c(c1C)OC(C)([C@H]1CC[C@H](N(C)CCc3ccccc3)CC1)O2 (stereo partly drawn) , thanks.
Result: 40.7

Request: Note, next up: CSc1cc(C)[nH]c(=O)c1CNC(=O)c1cc(-c2ccc3c(c2)OCO3)c2c(c1C)OC(C)(C1CCN(CC(F)(F)F)CC1)O2 (stereo not drawn)
Result: 28.5

Request: Note, next up: CCN1CCN(c2ncc(-c3cc(C(=O)NCc4c(SC)cc(C)[nH]c4=O)c(C)c4c3OC(C)(C3CCN(CC(F)(F)F)CC3)O4)cn2)CC1 (single isomer, unassigned) [Compound 76]
Result: 96.2

Request: Note, next up: CCN1CCC(C2(C)Oc3c(-c4cnc(N5CCOCC5)nc4)cc(C(=O)NCc4c(SC)cc(C)[nH]c4=O)c(C)c3O2)CC1 (single isomer, unassigned)
Result: 88

Request: Note, next up: CSc1cc(C)[nH]c(=O)c1CNC(=O)c1cc(-c2ccc(N3CCOCC3)nc2)c2c(c1C)OC(C)(C1CCN(CC(F)F)CC1)O2 (single isomer, unassigned)
Result: 90.5

Next:
Request: inhibition at 0.01 µM lookup needed for CSc1cc(C)[nH]c(=O)c1CNC(=O)c1cc(-c2ccc(N3CCOCC3)nc2)c2c(c1C)OC(C)(C1CCN(CC(F)(F)F)CC1)O2 (stereo not drawn) [Compound 61] , thanks.
Result: 78.2

Request: Note, next up: CSc1cc(C)[nH]c(=O)c1CNC(=O)c1cc(-c2cnc(N3CCSCC3)nc2)c2c(c1C)OC(C)(C1CCN(CC(F)(F)F)CC1)O2 (stereo not drawn)
Result: 43.2

Request: Note, next up: CSc1cc(C)[nH]c(=O)c1CNC(=O)c1cc(-c2ccc(N3C[C@@H](C)O[C@@H](C)C3)nc2)c2c(c1C)OC(C)([C@H]1CC[C@H](N3CC(O)C3)CC1)O2 (stereo partly drawn)
Result: 78.1

Request: Note, next up: CSc1cc(C)[nH]c(=O)c1CNC(=O)c1cc(-c2ccc(N3C[C@@H](C)O[C@@H](C)C3)nc2)c2c(c1C)OC(C)(C1CCN(C3CCCCC3)CC1)O2 (single isomer, unassigned)
Result: 91.6

Request: Note, next up: CSc1cc(C)[nH]c(=O)c1CNC(=O)c1cc(-c2ccc(N3C[C@@H](C)O[C@@H](C)C3)nc2)c2c(c1C)OC(C)([C@H]1CC[C@H](N(C)C(C)C)CC1)O2 (stereo partly drawn)
Result: 91.9

Request: Note, next up: CSc1cc(C)[nH]c(=O)c1CNC(=O)c1cc(-c2ccc(N3C[C@@H](C)O[C@@H](C)C3)nc2)c2c(c1C)OC(C)(C1CCN(CC(F)F)CC1)O2 (single isomer, unassigned) [Compound 47]
Result: 86.7

Request: Note, next up: CSc1cc(C)[nH]c(=O)c1CNC(=O)c1cc(-c2ccc(N3C[C@@H](C)O[C@@H](C)C3)nc2)c2c(c1C)OC(C)([C@H]1CC[C@H](N3CC(OCC(F)F)C3)CC1)O2 (stereo partly drawn)
Result: 20.5

Request: Note, next up: CSc1cc(C)[nH]c(=O)c1CNC(=O)c1cc(-c2ccc(N3C[C@@H](C)O[C@@H](C)C3)nc2)c2c(c1C)OC(C)([C@H]1CC[C@H](N(C)CCCC(F)(F)F)CC1)O2 (stereo partly drawn)
Result: 68.8
